The origin of these recorded values is the METLIN SMRT retention time set (Domingo-Almenara et al. 2019).

assay.comment: gradient 5% acetonitrile 3 min, to 50% in 2 min, to 85% in 15 min, held 3 min, 100 µL/min
particulars: column: Zorbax Extend-C18 2.1 x 50 mm; eluents: water / acetonitrile, 0.1% formic acid
Some compounds, each annotated with its measured RP-LC retention time.
Just the number in s, nothing appended.

Example entries and their recorded answers appear below.
CCCN(CC1CCOC1)C(=O)c1ccc(F)cc1F (centres undefined)
743
Cc1ccc(-n2nc(N3CCCC(C(=O)NCc4ccc(F)cc4)C3)ccc2=O)cc1Cl (centres undefined)
929
Cc1ccc(-c2nccn3cc(C(=O)N4CCOCC4)nc23)cc1
748

// moving on: another record for RP-LC retention time
Enquiry: // returns reported RP-LC retention time for input CN(C(=O)c1ccc2c(c1)OCO2)C1CCc2nn(CC3CC3)c(=O)n2CC1 (centres undefined)
Return: 670

----------
assay.comment: gradient 5% acetonitrile 3 min, to 50% in 2 min, to 85% in 15 min, held 3 min, 100 µL/min
particulars: column: Zorbax Extend-C18 2.1 x 50 mm; eluents: water / acetonitrile, 0.1% formic acid
measured.quantity: RP-LC retention time (s)
Just the number in s, nothing appended.

Example entries and their recorded answers appear below.
O=C(Cc1csc(Nc2ccc(Cl)cn2)n1)N1CCCc2ccccc21
919
CCOc1ccccc1NC(=O)C1CCN(S(=O)(=O)c2cn(CC)cn2)CC1
784

Enquiry: // returns reported RP-LC retention time for input CN1C(=O)C(CC(=O)Nc2ccccc2)=C2CCCCC21 (stereo not drawn)
Return: 758

----------
assay.comment: gradient 5% acetonitrile 3 min, to 50% in 2 min, to 85% in 15 min, held 3 min, 100 µL/min
particulars: column: Zorbax Extend-C18 2.1 x 50 mm; eluents: water / acetonitrile, 0.1% formic acid
measured.quantity: RP-LC retention time (s)
Just the number in s, nothing appended.

Enquiry: // returns reported RP-LC retention time for input CCCn1cc(CCNC(=O)c2ccc(F)cc2)c2cccnc21
Return: 732

Enquiry: // returns reported RP-LC retention time for input COc1ccc(-c2cc(=O)c3c(O)cc(O)cc3o2)cc1OC
Return: 770

Enquiry: // returns reported RP-LC retention time for input Cc1ccc(Cl)cc1N(C)C(=O)Cn1cnc2nc3c(cc2c1=O)CCCC3
Return: 809

Enquiry: // returns reported RP-LC retention time for input CC(C)(C)c1cc(C(=O)NCc2cccnc2)nc2ccnn12
Return: 657

----------
assay.comment: gradient 5% acetonitrile 3 min, to 50% in 2 min, to 85% in 15 min, held 3 min, 100 µL/min
particulars: column: Zorbax Extend-C18 2.1 x 50 mm; eluents: water / acetonitrile, 0.1% formic acid
# cutoff 800 s applies to RP-LC retention time; >= gives label 1, < gives label 0

O=C(NC1CCCCC1)N1CCCC(Cn2c(C3CC3)nc3cccnc32)C1 (stereo not drawn)
label 0
CCC1CN(C(=O)Nc2cccc(C(=O)OC)c2)c2ccccc2O1 (stereo not drawn)
label 1
CCN1CCN(S(=O)(=O)c2ccc(/C=C\c3onc(C)c3NC(=O)C3CC3)cc2)CC1
label 0
O=C(NCC(=O)N1CCCc2ccccc21)c1cccc2[nH]ccc12
label 0

Turning to the following compound.
Enquiry: Is RP-LC retention time at least 800 s? Consider O=C(Nc1ccc2c(c1)CN(S(=O)(=O)c1ccccc1)CC2)NC1CCCCC1
Return: label 1

----------
assay.comment: gradient 5% acetonitrile 3 min, to 50% in 2 min, to 85% in 15 min, held 3 min, 100 µL/min
particulars: column: Zorbax Extend-C18 2.1 x 50 mm; eluents: water / acetonitrile, 0.1% formic acid
measured.quantity: RP-LC retention time

O=C(NC1CC1)[C@@H]1C[C@H](Oc2ccccc2)CN1C(=O)Cn1c(=O)oc2ccccc21
786 s
CCS(=O)(=O)NCc1ccc2c(c1)CCN2C(=O)c1cccc(C)c1
815 s
c1ccc(-c2nnc(-c3cccnc3)o2)cc1
666 s
COc1cc(-c2nc3ncccn3c2NCc2ccc(Cl)cc2)ccc1OC(C)C
808 s
Cc1ccc(-c2nc3ncccn3c2NCc2ccccc2)cc1
729 s

Enquiry: // returns reported RP-LC retention time for input Cc1cc(C)cc(N2CC(c3nc(-c4ccccc4F)no3)CC2=O)c1 (stereo not given)
Return: 1010 s

Enquiry: // returns reported RP-LC retention time for input CCc1cc(=O)n(CC(=O)Nc2cccc(Cl)c2C)c(N2CCOCC2)n1
Return: 771 s

Enquiry: // returns reported RP-LC retention time for input Cc1cc(C(=O)N2CCCC2)c2cc(Br)ccc2n1
Return: 677 s

----------
assay.comment: gradient 5% acetonitrile 3 min, to 50% in 2 min, to 85% in 15 min, held 3 min, 100 µL/min
particulars: column: Zorbax Extend-C18 2.1 x 50 mm; eluents: water / acetonitrile, 0.1% formic acid
# cutoff 800 s applies to RP-LC retention time; >= gives condition met, < gives condition not met

Field: example entries. Status: answers known.
COC(=O)c1ccc(NC(=O)N2CCC3(CC2)NC(=O)c2ccccc2O3)cc1
condition not met
COc1ccc(-c2nc3cccnc3n2C2CCN(C(=O)NCc3ccco3)C2)cc1 (stereo unspecified)
condition not met
COc1ccc(-c2cc3c(=O)n(Cc4cc(C)ccc4C)ccn3n2)cc1OC
condition met
CC1(C)CC(=O)c2cn(-c3ccc(F)cc3)c(=O)c(C(=O)Nc3ccc4c(c3)OCCO4)c2C1
condition met
Cn1nc(C(=O)N2CCCCC2)c2c1CCN(C(=O)Nc1ccccc1Br)C2
condition not met
Cn1cc2c(N3CCCC3)nc(C(=O)NCc3ccccc3C(F)(F)F)nc2n1
condition not met
CSCc1csc(NC(=O)NCc2ccc(F)cc2)n1
condition not met
COC(=O)c1ccc(NC(=O)C2CCN(S(=O)(=O)c3ccc4c(c3)sc(=O)n4C)CC2)cc1
condition met

Enquiry: Is RP-LC retention time at least 800 s? Consider COc1ccc(-c2nc3c4ccccc4ncn3n2)cc1
Return: condition met

Enquiry: Is RP-LC retention time at least 800 s? Consider O=C(c1ccc2c(=O)n3c(nc2c1)CCCC3)N1CCC(Cc2ccccc2)CC1
Return: condition met

Enquiry: Is RP-LC retention time at least 800 s? Consider CCc1nn2c(CNS(=O)(=O)Cc3cc(F)cc(F)c3)c(-c3ccccc3)nc2s1
Return: condition met

Enquiry: Is RP-LC retention time at least 800 s? Consider CCCNC(=O)N1CC(Oc2ccc(-c3nc(C)no3)cc2)C1
Return: condition not met

----------
assay.comment: gradient 5% acetonitrile 3 min, to 50% in 2 min, to 85% in 15 min, held 3 min, 100 µL/min
particulars: column: Zorbax Extend-C18 2.1 x 50 mm; eluents: water / acetonitrile, 0.1% formic acid
The threshold is 700 s. Values of RP-LC retention time beneath it are tagged criterion met; values meeting or exceeding it are tagged criterion not met.

Field: example entries. Status: answers known.
CCn1cc(-c2ccccc2)cc1C(=O)NCCN1CCCC1
criterion met
N#Cc1ccc(Cl)cc1NC(=O)C(=O)NCC(O)C1CCCCC1 (configuration not stated)
criterion not met
COCCn1cc2c3c(cccc31)CN(C(=O)Nc1ccccc1C(F)(F)F)CC2
criterion not met
CC(Oc1ccc(=O)n(-c2ccc(F)cc2)n1)C(=O)Nc1cccc(Cl)c1 (configuration not stated)
criterion not met

Enquiry: Hi there! Is RP-LC retention time for CCc1ccc(OCC(=O)OCCNC(=O)c2ccncc2)cc1 below 700 s, do you know?
Return: criterion met

Enquiry: Hi there! Is RP-LC retention time for CN1C(=O)C2(CCN(C(=O)Cc3cccc(F)c3)C2)c2ccccc21 (configuration not stated) below 700 s, do you know?
Return: criterion not met

Enquiry: Hi there! Is RP-LC retention time for Cc1ccc(-c2csc(Nc3ccccn3)n2)cc1 below 700 s, do you know?
Return: criterion not met

Enquiry: Hi there! Is RP-LC retention time for COc1ccc2c(c1)c(CN1CC[C@H](CO)[C@H](N(C)C)C1)cn2C(C)C below 700 s, do you know?
Return: criterion met

----------
assay.comment: gradient 5% acetonitrile 3 min, to 50% in 2 min, to 85% in 15 min, held 3 min, 100 µL/min
particulars: column: Zorbax Extend-C18 2.1 x 50 mm; eluents: water / acetonitrile, 0.1% formic acid
Consider the following partition of reported RP-LC retention time into named classes: lower band (below 700 s), central band (700 s to below 800 s), upper band (800 s or more)

Enquiry: Returns: class label. Input: CCc1cccc(NC(=O)Nc2cccc(-c3ccc(N4CCOCC4)nn3)c2)c1
Return: central band

Enquiry: Returns: class label. Input: CCOc1cccc(CN2CCc3nc(N4CCN(c5ccccc5F)CC4)ncc3C2)c1
Return: upper band

Enquiry: Returns: class label. Input: O=C(Nc1ccc(N2CCN(C3CCCC3)C2=O)nc1)c1ccncc1
Return: lower band

Enquiry: Returns: class label. Input: CCN(CC)S(=O)(=O)c1ccc2c(c1)N(CC(=O)NC1CCCCCC1)C(=O)C1CCCCN21 (stereo not drawn)
Return: upper band

Enquiry: Returns: class label. Input: COc1cccc(-c2ccc(=O)n(CCc3nc(-c4ccc(C)cc4)no3)n2)c1
Return: upper band

Enquiry: Returns: class label. Input: Cn1nc(-c2nncn2CC2CC2)c2c1CCN(C(=O)CC1CCCC1)C2
Return: central band

Enquiry: Returns: class label. Input: Cc1cccc(N2CCN(C(=O)C3CCN(S(=O)(=O)c4cn(C)c(C)n4)CC3)CC2C)c1 (stereo not drawn)
Return: lower band

Enquiry: Returns: class label. Input: CCC(=O)NCc1nc2c(n1CC)CN(S(=O)(=O)c1ccc(Cl)cc1)CC2
Return: lower band

Enquiry: Returns: class label. Input: CNC(=O)NC1CCN(C(=O)c2cccc(F)c2)C1 (stereo not drawn)
Return: lower band

Enquiry: Returns: class label. Input: O=C(NCc1cccc2ccccc12)NCC1CCN(C(=O)COc2ccccc2)CC1
Return: central band
